Recorded values, source patent US20130129739A1.

Catalogue of binders with associated Kd
Experimental System: T1, extracellular domain of human PRLR (monomeric, soluble) (human, UniProt P16471 25-234)
T1 construct: also called ECD-PRLR; ECD of PRLR
T1 sequence: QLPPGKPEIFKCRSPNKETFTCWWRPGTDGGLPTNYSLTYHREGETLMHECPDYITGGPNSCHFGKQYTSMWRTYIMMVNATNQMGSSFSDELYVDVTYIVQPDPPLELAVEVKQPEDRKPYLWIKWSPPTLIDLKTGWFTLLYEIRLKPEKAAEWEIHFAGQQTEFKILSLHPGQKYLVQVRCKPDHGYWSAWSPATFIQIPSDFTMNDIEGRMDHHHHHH
Assay Comment: SPR (Biacore), IgG1 directly immobilized, monomeric human PRLR ECD from HEK293 as analyte
Entry rule: numbers only, all in nM.

Here are 2 binders together with their reported answers.
002-H06 (antibody, V domains shown, Tested as human IgG1) VH: QVELLESGGGLVQPGGSLRLSCAASGFTFANYGLTWVRQAPGKGLEWVAVISFNGDKKYYADSVKGRFTISRDNSKNTLYLQMNSLRAEDTAVYYCASPLESPVAFDIWGQGTLVTVSS VL: QSVLTQPPSASGTPGQRVTISCSGSYSNIGGNPVNWYQQLPGTAPKLLIYGNSNRPSGVPDRFSGSKSGTSASLAISGLRSEDEADYYCQSYDSSLSGSVFGGGTKLTVLG; 2.7
001-E06 (antibody, V domains shown, Tested as human IgG1) VH: QVELLESGGGLVQPGGSLRLSCAASGFTFSSYWMSWVRQAPGKGLEWVSSVSDTGTDTHYADSVKGRFTISRDNSKNTLYLQMNSLRAEDTAVYYCAKTPLAYSSGWYYFDYWGQGTLVTVSS VL: DIVLTQPPSASGTPGQRVTISCSGSSSNIGSNTVNWYQQLPGTAPKLLIYRNYQRPSGVPDRFSGSKSGTSASLAISGLRSEDEADYYCQSYDSSLSGSVFGGGTKLTVLG; 15.8

Shift focus to the following entry.
The binder listed as XHA06.983 (antibody, V domains shown, Novartis antibody (WO2008/022295)) VH: DVQLVESGGGLVQPGGSRKLSCAASGFAFSSFGMQWVRQAPEKGLEWVAYISSGSSTIYYADTVKGRFTISRDNPKNTLFLQMTSLRSEDTAMYYCVRSGRDYWGQGTSVTVSS VL: SIVMTQTPKFLLVSAGDRVTITCKASQGVSNDVAWFQQKPGQSPKLLIYSASTRYTGVPDRLTGSGYGTDFTFTINTVQAEDLAVYFCQQDYTSPTFGGGTKLEIKR shows Kd equal to 0.2
